This collection of values is drawn from paper PMC6001238.

Exercise: state measured pIC50 for each of the compounds provided.
# Test system: human cervix carcinoma (HeLa) cells
# Assay notes: Cytostatic activity, HeLa cell proliferation
# Assay type: cell-based
# Experimental parameters: mean ± SD of three experiments; highest concentration tested 250 µM; 4 days; read-out: Toxicity (IC50) HeLa
Answers are plain numbers, as −log10 of the molar value.

INSERT INTO results (compound, obs_value) VALUES
  ('CNC(CC(C)C)C(=O)NC1C(=O)NC(CC(N)=O)C(=O)NC2C(=O)NC3C(=O)NC(C(=O)NC(C(=O)NCCCNC(=O)c4ccc(-c5ccccc5)cc4)c4cc(O)cc(O)c4-c4cc3ccc4O)C(O)c3ccc(c(Cl)c3)Oc3cc2cc(c3OC2OC(CO)C(O)C(O)C2OC2CC(C)(N)C(O)C(C)O2)Oc2ccc(cc2Cl)C1O (stereo not drawn)', 4.08),
  ('CCCCCc1ccc(NC(=O)CNC(=O)[C@H]2NC(=O)[C@H]3NC(=O)[C@H](NC(=O)[C@@H]4NC(=O)[C@H](CC(N)=O)NC(=O)[C@H](NC(=O)[C@@H](CC(C)C)NC)[C@H](O)c5ccc(c(Cl)c5)Oc5cc4cc(c5O[C@@H]4O[C@H](CO)[C@@H](O)[C@H](O)[C@H]4O[C@H]4C[C@](C)(N)[C@H](O)[C@H](C)O4)Oc4ccc(cc4Cl)[C@H]3O)c3ccc(O)c(c3)-c3c(O)cc(O)cc32)cc1', 3.99),
  ('CNC(CC(C)C)C(=O)NC1C(=O)NC(CC(N)=O)C(=O)NC2C(=O)NC3C(=O)NC(C(=O)NC(C(=O)NCC(=O)Nc4ccc(-c5ccc(C(C)=O)cc5)cc4)c4cc(O)cc(O)c4-c4cc3ccc4O)C(O)c3ccc(c(Cl)c3)Oc3cc2cc(c3OC2OC(CO)C(O)C(O)C2OC2CC(C)(N)C(O)C(C)O2)Oc2ccc(cc2Cl)C1O (stereo not drawn)', 4.03);

For every record below, what is its pIC50?
1. CNC(CC(C)C)C(=O)NC1C(=O)NC(CC(N)=O)C(=O)NC2C(=O)NC3C(=O)NC(C(=O)NC(C(=O)NCCCNC(=O)c4ccc(-c5ccc(F)cc5)cc4)c4cc(O)cc(O)c4-c4cc3ccc4O)C(O)c3ccc(c(Cl)c3)Oc3cc2cc(c3OC2OC(CO)C(O)C(O)C2OC2CC(C)(N)C(O)C(C)O2)Oc2ccc(cc2Cl)C1O (stereo not drawn)
2. CN[C@H](CC(C)C)C(=O)N[C@H]1C(=O)N[C@@H](CC(N)=O)C(=O)N[C@H]2C(=O)N[C@H]3C(=O)N[C@H](C(=O)N[C@H](C(=O)NCCNC(=O)/C=C/c4ccc(NS(=O)(=O)c5ccc(C(C)C)cc5)cc4)c4cc(O)cc(O)c4-c4cc3ccc4O)[C@H](O)c3ccc(c(Cl)c3)Oc3cc2cc(c3O[C@@H]2O[C@H](CO)[C@@H](O)[C@H](O)[C@H]2O[C@H]2C[C@](C)(N)[C@H](O)[C@H](C)O2)Oc2ccc(cc2Cl)[C@H]1O

[3.96, 3.98]

====

# System: E. faecalis VRE 53
# Assay notes: MIC, broth microdilution, vancomycin-resistant E. faecalis VRE 53 (VanA)
# Assay type: cell-based, Enterococcus faecalis
# Experimental parameters: Enterococcus faecalis VRE 53 (vancomycin-resistant); read-out: MIC
Endpoint name: MIC (µM)
Give bare numbers, in µM.

Known MIC results, listed for orientation:
INSERT INTO assay_data (compound, endpoint_name, obs_value) VALUES
  ('CNC(CC(C)C)C(=O)NC1C(=O)NC(CC(N)=O)C(=O)NC2C(=O)NC3C(=O)NC(C(=O)NC(C(=O)NCC(=O)Nc4ccc5c(c4)C(=O)c4ccccc4-5)c4cc(O)cc(O)c4-c4cc3ccc4O)C(O)c3ccc(c(Cl)c3)Oc3cc2cc(c3OC2OC(CO)C(O)C(O)C2OC2CC(C)(N)C(O)C(C)O2)Oc2ccc(cc2Cl)C1O (stereo not drawn)', 'MIC', 12.5),
  ('CN[C@H](CC(C)C)C(=O)N[C@H]1C(=O)N[C@@H](CC(N)=O)C(=O)N[C@H]2C(=O)N[C@H]3C(=O)N[C@H](C(=O)N[C@H](C(=O)NCC(=O)Nc4ccc(OC)cc4)c4cc(O)cc(O)c4-c4cc3ccc4O)[C@H](O)c3ccc(c(Cl)c3)Oc3cc2cc(c3O[C@@H]2O[C@H](CO)[C@@H](O)[C@H](O)[C@H]2O[C@H]2C[C@](C)(N)[C@H](O)[C@H](C)O2)Oc2ccc(cc2Cl)[C@H]1O', 'MIC', 12.5);

Return reported MIC; argument: `CN[C@H](CC(C)C)C(=O)N[C@H]1C(=O)N[C@@H](CC(N)=O)C(=O)N[C@H]2C(=O)N[C@H]3C(=O)N[C@H](C(=O)N[C@H](C(=O)NCC(=O)Nc4ccccc4)c4cc(O)cc(O)c4-c4cc3ccc4O)[C@H](O)c3ccc(c(Cl)c3)Oc3cc2cc(c3O[C@@H]2O[C@H](CO)[C@@H](O)[C@H](O)[C@H]2O[C@H]2C[C@](C)(N)[C@H](O)[C@H](C)O2)Oc2ccc(cc2Cl)[C@H]1O`
25
